The origin of these recorded values is the supplement of paper PMC10567573.

B1: NCK2 (parent)
chain: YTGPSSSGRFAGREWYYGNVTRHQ

# Variants of: B1
# TEST_METHOD_NOTES: protein stability index of a GFP-peptide fusion (GPS, HEK-293T) (PSI 1-6); higher = more stable;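 further: lentivirally expressed fusions sorted by FACS into six bins by GFP to DsRed ratio, PSI derived from sequencing read proportions per bin multiplied by bin number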
# STATED_CONDITIONS: c terminus: a fixed tail appended
Recorded protein stability index by entry

| SEQUENCE_VARIANT | protein stability index |
| --- | --- |
| W15Y | 2.23 |
| R13S | 2.03 |
| G12S | 1.52 |
| G18H | 2.11 |
| V20L | 1.88 |
| R9E | 2.5 |
| T2H | 1.88 |
| S6V | 1.58 |
| W15H | 2.66 |
| T21M | 2.29 |
| R13T | 1.81 |
| G18F | 1.6 |
| V20P | 1.81 |
| G3P | 1.56 |
| G18L | 3 |
| A11K | 1.32 |
| S6D | 1.91 |
| Y17G | 2.83 |
| G18Q | 2.23 |
| T21G | 1.45 |
| E14K | 2.03 |
| G12A | 1.73 |
| R13Y | 1.94 |
| P4Q | 1.26 |
| P4W | 1.71 |
| G3S | 2.04 |
| S7D | 1.59 |
| S5V | 1.4 |
| F10Y | 1.64 |
| R22Q | 2.17 |
| Y16R | 1.98 |
| Q24T | 1.18 |
| F10M | 2.1 |
| R13H | 2.75 |
| G12P | 1.42 |
| Y17V | 1.89 |
| P4Y | 3.08 |
| G12H | 2.26 |
| E14V | 2.56 |
| P4F | 1.82 |
| V20N | 1.98 |
